molecular target: 5-HT2C receptor (Homo sapiens); conditions: read-out: 5-HT2C Ki
Sequence (P28335 33-458): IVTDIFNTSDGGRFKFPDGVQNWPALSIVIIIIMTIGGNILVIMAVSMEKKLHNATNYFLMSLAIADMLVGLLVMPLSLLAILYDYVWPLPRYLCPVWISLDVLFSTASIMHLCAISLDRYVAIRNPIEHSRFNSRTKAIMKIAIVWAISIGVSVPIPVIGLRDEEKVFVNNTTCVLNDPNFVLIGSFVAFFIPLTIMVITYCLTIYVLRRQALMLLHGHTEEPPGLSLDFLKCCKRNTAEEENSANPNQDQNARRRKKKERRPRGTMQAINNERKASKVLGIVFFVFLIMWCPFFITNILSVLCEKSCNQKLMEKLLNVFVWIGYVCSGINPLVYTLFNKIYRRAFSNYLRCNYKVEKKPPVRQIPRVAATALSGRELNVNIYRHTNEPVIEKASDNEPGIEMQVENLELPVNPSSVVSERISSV
outcome.measure: Ki (nM)

substance.smiles	target.or.system	result
CN1CCN2c3c(cccc31)[C@@H]1CN(CCCC(=O)c3ccc(F)cc3)CC[C@@H]12	5-HT2C receptor (Homo sapiens)	173

###

target: UniProt:P35367; experiment: H1 receptor affinity (off-target); assay type: binding
Sequence (P35367 whole entry): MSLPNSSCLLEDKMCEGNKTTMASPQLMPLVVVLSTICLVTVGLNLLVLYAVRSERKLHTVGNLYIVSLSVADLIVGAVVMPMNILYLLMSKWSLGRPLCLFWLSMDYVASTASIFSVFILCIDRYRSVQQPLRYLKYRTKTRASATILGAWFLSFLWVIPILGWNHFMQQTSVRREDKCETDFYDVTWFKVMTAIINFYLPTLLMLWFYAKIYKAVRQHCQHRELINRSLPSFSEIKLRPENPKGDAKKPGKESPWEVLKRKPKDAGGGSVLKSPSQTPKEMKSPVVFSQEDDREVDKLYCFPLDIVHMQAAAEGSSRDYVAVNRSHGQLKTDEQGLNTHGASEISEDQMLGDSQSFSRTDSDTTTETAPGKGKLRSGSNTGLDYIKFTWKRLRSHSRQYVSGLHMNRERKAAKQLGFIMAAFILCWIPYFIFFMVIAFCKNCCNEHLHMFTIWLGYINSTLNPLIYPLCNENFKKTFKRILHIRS
outcome.measure: Ki

compound	outcome.measure	result
CN1CCN2c3c(cccc31)[C@@H]1CN(CCCC(=O)c3ccc(F)cc3)CC[C@@H]12 [Compound A]	Ki	> 1000 nM

###

assay: Randomized, double-blind, placebo-controlled single oral dose escalation study (safety, tolerability, pharmacokinetics); format: in vivo, human; conditions: male, human, plasma; oral administration

compound	Tmax
CN1CCN2c3c(cccc31)[C@@H]1CN(CCCC(=O)c3ccc(F)cc3)CC[C@@H]12 [Compound A]	~1 h
